Reported pKd by item:
Target: T1, serum purified human Complement Factor D (human, UniProt P00746 26-253)
T1 construct: Serum purified protein flowed over the captured antibodies; also called CFD; human CFD
T1 sequence (P00746 26-253): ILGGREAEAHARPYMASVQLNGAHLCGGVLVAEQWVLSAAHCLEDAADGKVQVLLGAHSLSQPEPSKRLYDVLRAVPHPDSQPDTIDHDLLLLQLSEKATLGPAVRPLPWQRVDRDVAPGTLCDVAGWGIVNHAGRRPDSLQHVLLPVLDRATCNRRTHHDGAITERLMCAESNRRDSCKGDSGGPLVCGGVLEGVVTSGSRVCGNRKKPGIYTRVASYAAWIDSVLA
Assay: SPR Biacore, antibody on protein A chip, single cycle kinetics, 25 C;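 note: antibodies captured to roughly 70 RU on the protein A surface in HBS-EP+ running buffer, with kinetic constants derived by BIAevaluation fitting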
Quick note: pKd values are minus log10 of concentrations in mol/L.

Worked set:
BINDER	pKd
34I54I59D84S / 54G101V (antibody, V domains shown, also called 34I54I59D845 / 54G101V) VH: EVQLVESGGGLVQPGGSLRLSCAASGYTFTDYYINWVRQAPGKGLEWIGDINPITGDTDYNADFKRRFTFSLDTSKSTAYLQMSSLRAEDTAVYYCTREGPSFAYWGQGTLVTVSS VL: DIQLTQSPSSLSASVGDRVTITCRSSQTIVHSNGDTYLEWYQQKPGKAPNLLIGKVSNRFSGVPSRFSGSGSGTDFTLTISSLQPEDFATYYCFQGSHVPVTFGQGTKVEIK	11.17
31S54I59D84S / 32W60W101V (antibody, V domains shown, Label printed 31S54I59D845, read as 84S; full antibody captured on protein A; also called 31S54I59D845 / 32W60W101V) VH: EVQLVESGGGLVQPGGSLRLSCAASGYTFTSYYMNWVRQAPGKGLEWIGDINPITGDTDYNADFKRRFTFSLDTSKSTAYLQMSSLRAEDTAVYYCTREGPSFAYWGQGTLVTVSS VL: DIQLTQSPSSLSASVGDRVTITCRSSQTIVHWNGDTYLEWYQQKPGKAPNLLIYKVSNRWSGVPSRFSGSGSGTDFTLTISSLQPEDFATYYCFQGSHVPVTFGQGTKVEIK	10.69

Now take the following binder into account.
Per the record, 54I59D / 54G60W101 (antibody, V domains shown) VH: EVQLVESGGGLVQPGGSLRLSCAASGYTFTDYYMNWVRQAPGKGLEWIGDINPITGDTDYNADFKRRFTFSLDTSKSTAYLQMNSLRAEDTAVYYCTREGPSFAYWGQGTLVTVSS VL: DIQLTQSPSSLSASVGDRVTITCRSSQTIVHSNGDTYLEWYQQKPGKAPNLLIGKVSNRWSGVPSRFSGSGSGTDFTLTISSLQPEDFATYYCFQGSHVPVTFGQGTKVEIK has pKd of 10.90
